This collection of values is drawn from patent US8822517B2.

assay_system: serotoninergic 5-HT2A receptor (Homo sapiens)
measurement_notes: Binding assay 5-HT2A (h), [3H]ketanserin, HEK-293 cells
Set-up: expressed in transfected cells; host or cells: HEK-293 cells
experimental_parameters: read-out: 5-HT2A

>  <molecule>
Cc1[nH]c2ccc(Cl)cc2c1C1=CCN(CCNS(=O)(=O)c2ccc(F)cc2)CC1 [Compound 449]

>  <inhibition at 1 µM / %>
76

$$$$
>  <molecule>
O=S(=O)(NCCCN1CCN(c2nsc3ccccc23)CC1)c1cccc(F)c1 [Compound 72]

>  <inhibition at 1 µM / %>
94

$$$$
>  <molecule>
O=S(=O)(NCCCN1CCN(c2nsc3ccccc23)CC1)c1csc2ccccc12 [Compound 263]

>  <inhibition at 1 µM / %>
102

$$$$
>  <molecule>
O=S(=O)(NCCCCN1CCN(c2noc3ccccc23)CC1)c1ccc(-c2ccccc2)cc1 [Compound 283]

>  <inhibition at 1 µM / %>
103

$$$$
>  <molecule>
O=S(=O)(NCCCCN1CCN(c2noc3ccccc23)CC1)c1cccc2ccccc12 [Compound 13]

>  <inhibition at 1 µM / %>
100

$$$$
>  <molecule>
Cn1ccc2c(S(=O)(=O)NCCCN3CCC(c4noc5cc(F)ccc45)CC3)cccc21 [Compound 343]

>  <inhibition at 1 µM / %>
105

$$$$
>  <molecule>
O=C1Cc2cc(S(=O)(=O)NCCCCN3CCC(c4noc5cc(F)ccc45)CC3)ccc2N1 [Compound 324]

>  <inhibition at 1 µM / %>
104

$$$$
>  <molecule>
O=S(=O)(NCCCN1CCC(c2noc3cc(F)ccc23)CC1)c1ccc(-c2ccccc2)cc1 [Compound 112]

>  <inhibition at 1 µM / %>
93

$$$$

====

This section presents molecules with their documented inhibition at 1 µM values.
assay_system: UniProtKB P18825
Sequence (P18825 whole entry): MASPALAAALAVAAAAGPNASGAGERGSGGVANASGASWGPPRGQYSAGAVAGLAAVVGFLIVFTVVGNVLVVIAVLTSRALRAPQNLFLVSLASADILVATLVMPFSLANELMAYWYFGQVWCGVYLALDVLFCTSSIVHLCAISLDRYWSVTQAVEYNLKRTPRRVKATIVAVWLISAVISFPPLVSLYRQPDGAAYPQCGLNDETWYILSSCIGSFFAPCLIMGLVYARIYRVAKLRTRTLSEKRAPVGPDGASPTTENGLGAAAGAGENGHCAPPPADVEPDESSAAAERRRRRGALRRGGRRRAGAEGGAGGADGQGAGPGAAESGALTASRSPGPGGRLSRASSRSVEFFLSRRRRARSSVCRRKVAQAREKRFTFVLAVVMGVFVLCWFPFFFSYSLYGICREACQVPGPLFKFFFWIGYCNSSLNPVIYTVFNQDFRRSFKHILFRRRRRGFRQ
measurement_notes: Binding assay α2C (h), [3H]RX 821002, CHO cells
Design: expressed in transfected cells; host or cells: CHO cells
experimental_parameters: read-out: α2C [%]
Method: The specific ligand binding to the receptors is defined as the difference between the total binding and the nonspecific binding determined in the presence of an excess of so unlabelled ligand. The specific Ligand binding to the receptor is defined as the difference between total and non-specific binding determined in the presence of an excess of unlabelled ligand. The compounds were tested at a concentration of 1×10^−6 M, and scintillation counting was the method of detection of ligand binding.

>  <molecule>
O=S(=O)(NCCCN1CCC(c2noc3cc(F)ccc23)CC1)c1ccc2cc(Cl)ccc2c1 [Compound 98]

>  <inhibition at 1 µM [%]>
108

$$$$
>  <molecule>
Cc1cccc(S(=O)(=O)NCCCCN2CCN(c3nsc4ccccc34)CC2)c1 [Compound 3]

>  <inhibition at 1 µM [%]>
99

$$$$
>  <molecule>
O=c1[nH]c2ccc(S(=O)(=O)NCCN3CCN(c4nsc5ccccc45)CC3)cc2o1 [Compound 12]

>  <inhibition at 1 µM [%]>
83

$$$$
>  <molecule>
O=S(=O)(NCCCN1CCN(c2nsc3ccccc23)CC1)c1cccc(Br)c1 [Compound 253]

>  <inhibition at 1 µM [%]>
102

$$$$
>  <molecule>
O=S(=O)(NCCCN1CCN(c2nsc3ccccc23)CC1)c1cc2ccccc2s1 [Compound 262]

>  <inhibition at 1 µM [%]>
94

$$$$
>  <molecule>
O=S(=O)(NCCCCN1CCN(c2nsc3ccccc23)CC1)c1cc2ccccc2s1 [Compound 239]

>  <inhibition at 1 µM [%]>
105

$$$$
>  <molecule>
O=S(=O)(NCCCCN1CCC(c2noc3cc(F)ccc23)CC1)c1ccc(F)c(F)c1 [Compound 295]

>  <inhibition at 1 µM [%]>
97

$$$$
>  <molecule>
O=S(=O)(NCCN1CCN(c2nsc3ccccc23)CC1)c1cccc2ccccc12 [Compound 9]

>  <inhibition at 1 µM [%]>
98

$$$$
>  <molecule>
N#Cc1cccc(S(=O)(=O)NCCCN2CCN(c3nsc4ccccc34)CC2)c1 [Compound 74]

>  <inhibition at 1 µM [%]>
92

$$$$
>  <molecule>
Cc1[nH]c2ccc(Cl)cc2c1C1=CCN(CCCCNS(=O)(=O)c2ccc(Cl)cc2)CC1 [Compound 58]

>  <inhibition at 1 µM [%]>
80

$$$$
>  <molecule>
O=S(=O)(NCCCCN1CCN(c2cccc3[nH]ccc23)CC1)c1cnc2ccccn12 [Compound 30]

>  <inhibition at 1 µM [%]>
99

$$$$
>  <molecule>
O=S(=O)(NCCCN1CCN(c2nsc3ccccc23)CC1)c1cccc2scnc12 [Compound 267]

>  <inhibition at 1 µM [%]>
99

$$$$
>  <molecule>
O=S(=O)(NCCCCN1CCN(c2cccc3[nH]ccc23)CC1)c1cc2ccc(Cl)cc2s1 [Compound 363]

>  <inhibition at 1 µM [%]>
101

$$$$
>  <molecule>
O=c1[nH]c2ccc(S(=O)(=O)NCCCCN3CCN(c4noc5ccccc45)CC3)cc2o1 [Compound 16]

>  <inhibition at 1 µM [%]>
101

$$$$
>  <molecule>
O=S(=O)(NCCCCN1CCN(c2noc3ccccc23)CC1)c1ccc2cc(Cl)ccc2c1 [Compound 79]

>  <inhibition at 1 µM [%]>
106

$$$$
>  <molecule>
O=c1[nH]c2cccc(N3CCN(CCCNS(=O)(=O)c4cccc5ccccc45)CC3)c2[nH]1 [Compound 423]

>  <inhibition at 1 µM [%]>
69

$$$$
>  <molecule>
O=S(=O)(NCCCN1CCN(c2nsc3ccccc23)CC1)c1cccc2ccccc12 [Compound 5]

>  <inhibition at 1 µM [%]>
99

$$$$

====

assay_system: dopaminergic D2 receptor (Homo sapiens, UniProt P14416)
Sequence (P14416 1-414 isoform P14416-2): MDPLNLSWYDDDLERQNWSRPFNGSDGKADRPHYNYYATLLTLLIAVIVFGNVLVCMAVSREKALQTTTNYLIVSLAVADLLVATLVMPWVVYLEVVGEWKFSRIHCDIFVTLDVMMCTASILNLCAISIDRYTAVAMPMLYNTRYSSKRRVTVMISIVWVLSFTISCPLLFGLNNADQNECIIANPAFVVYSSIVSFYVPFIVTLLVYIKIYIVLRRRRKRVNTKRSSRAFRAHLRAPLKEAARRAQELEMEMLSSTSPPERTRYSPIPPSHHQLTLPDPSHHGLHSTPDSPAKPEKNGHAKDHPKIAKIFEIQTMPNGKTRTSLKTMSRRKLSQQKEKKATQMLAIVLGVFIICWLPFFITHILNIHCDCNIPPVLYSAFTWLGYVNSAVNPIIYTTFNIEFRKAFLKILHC
measurement_notes: Binding assay D2S (h), [3H]methyl-spiperone, HEK-293 cells
Design: expressed in transfected cells; host or cells: HEK-293 cells
experimental_parameters: read-out: D2 [%]
This section presents molecules with their documented inhibition at 1 µM values.
result_type: inhibition at 1 µM (%)

>  <molecule>
O=S(=O)(NCCCN1CCC(c2noc3cc(F)ccc23)CC1)c1ccc2c(c1)OCCO2 [Compound 355]

>  <result_type>
inhibition at 1 µM

>  <obs_value>
99

$$$$
>  <molecule>
O=S(=O)(NCCCCN1CCN(c2nsc3ccccc23)CC1)c1ccc2cc(Cl)ccc2c1 [Compound 61]

>  <result_type>
inhibition at 1 µM

>  <obs_value>
100

$$$$
>  <molecule>
O=S(=O)(NCCCCN1CCN(c2cccc3[nH]ccc23)CC1)c1cc2ccc(Cl)cc2s1 [Compound 363]

>  <result_type>
inhibition at 1 µM

>  <obs_value>
99

$$$$
>  <molecule>
O=C1COc2c(cccc2N2CCN(CCCCNS(=O)(=O)c3cccc(C(F)(F)F)c3)CC2)N1 [Compound 430]

>  <result_type>
inhibition at 1 µM

>  <obs_value>
69

$$$$
>  <molecule>
O=c1[nH]c2cccc(N3CCN(CCCNS(=O)(=O)c4ccc5ccccc5c4)CC3)c2[nH]1 [Compound 424]

>  <result_type>
inhibition at 1 µM

>  <obs_value>
97

$$$$
>  <molecule>
O=S(=O)(NCCCCN1CCC(c2noc3cc(F)ccc23)CC1)c1ccc(OC(F)(F)F)cc1 [Compound 304]

>  <result_type>
inhibition at 1 µM

>  <obs_value>
94

$$$$
>  <molecule>
Cc1cccc(S(=O)(=O)NCCCN2CCN(c3cccc4[nH]c(=O)[nH]c34)CC2)c1 [Compound 426]

>  <result_type>
inhibition at 1 µM

>  <obs_value>
28

$$$$
>  <molecule>
O=S(=O)(NCCCCN1CCN(c2nsc3ccccc23)CC1)c1cccc(Br)c1 [Compound 230]

>  <result_type>
inhibition at 1 µM

>  <obs_value>
105

$$$$
>  <molecule>
Cn1ccc2cc(S(=O)(=O)NCCCN3CCC(c4noc5cc(F)ccc45)CC3)ccc21 [Compound 344]

>  <result_type>
inhibition at 1 µM

>  <obs_value>
107

$$$$
>  <molecule>
Cc1[nH]c2ccc(Cl)cc2c1C1=CCN(CCCCNS(=O)(=O)c2cccc3ccccc23)CC1 [Compound 366]

>  <result_type>
inhibition at 1 µM

>  <obs_value>
54

$$$$
>  <molecule>
O=C1Cc2cc(S(=O)(=O)NCCCCN3CCC(c4noc5cc(F)ccc45)CC3)ccc2N1 [Compound 324]

>  <result_type>
inhibition at 1 µM

>  <obs_value>
105

$$$$
>  <molecule>
O=S(=O)(NCCCN1CCN(c2nsc3ccccc23)CC1)c1ccc2cc(Cl)ccc2c1 [Compound 62]

>  <result_type>
inhibition at 1 µM

>  <obs_value>
92

$$$$
>  <molecule>
O=S(=O)(NCCCN1CCN(c2cccc3c2OCCO3)CC1)c1ccc(-c2ccccc2)cc1 [Compound 415]

>  <result_type>
inhibition at 1 µM

>  <obs_value>
58

$$$$
>  <molecule>
O=c1[nH]c2ccc(S(=O)(=O)NCCCN3CCN(c4nsc5ccccc45)CC3)cc2o1 [Compound 8]

>  <result_type>
inhibition at 1 µM

>  <obs_value>
98

$$$$
>  <molecule>
CC(C)(C)c1ccc(S(=O)(=O)NCCCN2CCC(c3noc4cc(F)ccc34)CC2)cc1 [Compound 333]

>  <result_type>
inhibition at 1 µM

>  <obs_value>
92

$$$$
>  <molecule>
O=S(=O)(NCCCCN1CCC(c2noc3cc(F)ccc23)CC1)c1cccc(C(F)(F)F)c1 [Compound 303]

>  <result_type>
inhibition at 1 µM

>  <obs_value>
108

$$$$
